Tested on: OVCAR-8 ovarian
Experiment: NCI-60 one-dose screen, 48 h (100 = growth as untreated, 0 = no growth, -100 = all killed)
Settings: 10 µM unless noted
The panel holds about 83,000 compounds, 20% with a hit somewhere; the sample as a whole holds those more often. Activity calls are given as the source filed them. Rule for the calls: active = growth percent below 10; inactive = the rest.
reportedProperty: growth

As a guide, the following entries are already answered.
1. O=C(N/N=C/c1ccc(Cl)cc1)c1ccc(NC(=O)c2ccccn2)cc1 ... 46.1% (inactive)
2. CCOC(=O)c1c(C)nc2c(c1N)C(=O)C(=O)N2Cc1ccc(OC)cc1 ... 61.6% (inactive)
3. COc1cc(-c2ccc[nH]2)[nH]c1/C=C1\N=C(C)C(CC(=O)OCC(C)(C)C)=C1C ... -60.8% (active)
4. COc1cc(C=C2C(=O)NC(=S)NC2=O)cc(CN2CCCC2)c1O ... 108% (inactive)
5. c1ccc(Cn2cc3c(c2-c2ccccc2)CCc2cnoc2-3)cc1 ... 84.5% (inactive)
6. CC(=O)O[C@H]1CC[C@]2(C)[C@H]3CC=C4[C@@H]5CC(C)(C)CC[C@]5(C(=O)N5CCN(CCC#N)CC5)CC[C@@]4(C)[C@]3(C)CC[C@H]2C1(C)C ... 29.6% (inactive)

List growth for every entry below, keeping the order given.
1. O=C(O)CCCCCCCCCCN1C(=O)/C(=C2/C(=O)N(CC(=O)O)c3ccc(Br)cc32)SC1=S
2. CC[C@@H](C(=O)[C@@H](C)[C@@H](O)[C@H](C)[C@@H]1O[C@@H]([C@@H](CC)C(=O)ONC(=O)c2ccccc2O)CC[C@@H]1C)C1O[C@]2(C=CC(=O)[C@]3(CC[C@@](C)([C@H]4CC[C@](O)(CC)[C@H](C)O4)O3)O2)[C@H](C)C[C@@H]1C (some centres undefined)
3. COCCn1cc(-c2nc(-c3cn(CCOC)c4ncccc34)cs2)c2cc(F)ccc21
4. N=C(N)c1ccc(-c2ccc(-c3ccccc3)o2)o1
5. Nc1ccc(-c2ccncc2)cc1NC(=O)N1CCCC1
6. Ic1ccc(Nc2nc3nonc3nc2Nc2ccc(I)cc2)cc1
7. CC(C)c1ccc2c(c1)CC[C@H]1[C@](C)(C(=O)OCC#CCN3CCCC3)CCC[C@]21C

["65.9% (inactive)", "54.9% (inactive)", "62.4% (inactive)", "34.4% (inactive)", "85.3% (inactive)", "6.55% (active)", "89% (inactive)"]
